MIC reference
Tested on: Cryptococcus neoformans M 106
Experiment Description: MIC determination (NCCLS M27A/M38P broth dilution)
Type: cell-based
Test Context: RPMI 1640, MOPS pH 7
# output: bare number, implied unit µg/mL

test_smiles=C[C@@H]1[C@H](O)[C@@H](C)/C=C/C=C/C=C/C=C/C=C/C=C/C=C/[C@H](O[C@@H]2O[C@H](C)[C@@H](O)[C@H](N)[C@@H]2O)C[C@@H]2O[C@](O)(C[C@@H](O)C[C@@H](O)[C@H](O)CC[C@@H](O)C[C@@H](O)CC(=O)O[C@H]1C)C[C@H](O)[C@H]2C(=O)O readout_kind=MIC unit_abbreviation=µg/mL obs_value=0.06

Kindly review the next compound as well.
Param item = C[C@@H](n1ccn(-c2ccc(-n3cnnn3)cc2)c1=S)[C@](O)(Cn1cncn1)c1ccc(F)cc1F ; retrieve measured MIC. 0.03
